# Tested on: U251 CNS
# MEASUREMENT PROTOCOL: NCI-60 one-dose screen, 48 h
# RECORDED CONDITIONS: 10 µM unless noted
Compounds without any hit were thinned out: in the full panel of roughly 83,000, 20% have a hit. Active and inactive are the calls of the source. Rule for the calls: active = growth percent below 10; inactive = the rest.
Please state which outcome applies, choosing from 1 (yes) (active), 0 (no) (inactive)

COMPOUND	CLASS
O=C1c2cc3c(cc2-c2c1c1ccc(F)cc1c(=O)n2C[C@H](O)[C@H](O)[C@H](O)CO)OCO3	1 (yes)

Next, consider the following compound.
Each compound tested received a call. Report the one for Clc1ccc2c(NCCNc3nc(N4CCOCC4)nc4ccccc34)ccnc2c1 .
1 (yes)

---

# Test system: SNB-75 CNS
# MEASUREMENT PROTOCOL: NCI-60 one-dose screen, 48 h (100 = growth as untreated, 0 = no growth, -100 = all killed)
# RECORDED CONDITIONS: 10 µM unless noted
The panel holds about 83,000 compounds, 20% with a hit somewhere; the sample as a whole holds those more often. Activity calls are given as the source filed them. The calls were made as follows: active = growth percent below 10; inactive = the rest.
MEASURED METRIC: growth

For orientation, consider the following solved cases.
MOLECULE	growth
CCCc1cc(=O)n2c(C(=O)Nc3ccc(F)cc3)c(C(=O)Nc3ccc(F)cc3)sc2n1	-15.9% [30 µM] (active)
Cn1c(O)c(N=NC(=O)c2cc(-c3ccccc3)on2)c2ccccc21	58.5% (inactive)
C=CCSSC1N=CNc2nc[nH]c21 (configuration not stated)	46.9% (inactive)
CCC(=O)c1ccc(Cl)s1	91.4% (inactive)
NNCCc1ccc(NC(=O)CCCc2ccc(/C=C/C(=O)NO)cc2)cc1	53% (inactive)
Cc1ccc(OC(=O)c2ccc(Cl)cc2)cc1	77.1% (inactive)

Now let's try a different one.
The molecule identified as CCOC(=O)c1cc(C(=O)c2ccc(O)c(O)c2)n2ccc(-c3ccn4c(C(=O)c5ccc(O)c(O)c5)cc(C(=O)OCC)c4c3)cc12 registered its growth at 87.3% (inactive)

---

# System: NCI-H322M lung
# MEASUREMENT PROTOCOL: NCI-60 one-dose screen, 48 h (100 = growth as untreated, 0 = no growth, -100 = all killed)
# RECORDED CONDITIONS: 10 µM unless noted
This is part of a sample that, as a whole, favours compounds with a hit. Of some 83,000 tested, about 20% had one in any assay.
Doc: threshold 30% (exclusive). Items with growth beneath it return Fulfilled; others return Not fulfilled.

Example entries begin here.
COMPOUND	TEST TARGET	CLASS
CC(=O)c1cc2c(N)c(C(=O)Nc3cccc4ccccc34)sc2nc1C	NCI-H322M lung	Not fulfilled
COc1cc2c(cc1-c1c(C)noc1C)ncc1nc(C3CCCC3)n([C@H](C)COC(F)F)c12	NCI-H322M lung	Not fulfilled
CCCn1c(=O)[nH]c(N)c([C@H]2c3ccccc3Oc3[nH]c(=O)n(CCC)c(=O)c32)c1=O	NCI-H322M lung	Not fulfilled
O=C(Cc1ccc(/C=C/C(=O)c2ncc[nH]2)cc1)Nc1ccc(F)cc1	NCI-H322M lung	Not fulfilled
O=c1c(F)cn(Cc2ccccc2CCl)c(=O)n1Cc1ccccc1CCl	NCI-H322M lung	Fulfilled

Next, consider the following compound.
growth under 30%? Item: CCc1nc(N)nc(N)c1C#CC(C)c1cc(-c2ccnc(C)c2)c2oc(C)nc2c1 (centres undefined)
Fulfilled

Every entry's value here was drawn from PubChem BioAssay (NCI).
